Tested on: Human PBMC incubated with MHC-mismatched PBMC
assay: One-way mixed lymphocyte reaction (primary MLR), [3H]TdR uptake
Assay type: cell-based
condition.set: Table 2; primary MLR; tyrphostin 50 μM; no tyrphostin 10,734 cpm
observed.property: cpm

Please review the following examples before continuing.
{"columns": ["smi", "cpm"],
 "data": [
  ["N#CC(=Cc1ccc(O)c(O)c1)C(=O)NCCCCc1ccccc1", "3,156 cpm"],
  ["N#CC(C#N)=Cc1ccc([N+](=O)[O-])c(O)c1", "5,348 cpm"],
  ["N#CC(=Cc1ccc(O)c(O)c1)C(=O)NCc1ccccc1", "1,132 cpm"]
]}

Now look at this entry.
Query: Which cpm value is on record for N#CC(=Cc1cc(O)c(O)c(CSCCc2ccccc2)c1)C(=O)NCCCCc1ccccc1 ?
Response: 168 cpm

----------
Measured % Response to primary stimulator values are reported for all entries that follow.
Test system: donor A anti-donor B-primed human PBMC vs donor B PBMC
assay: Secondary MLR of alloantigen-primed PBMC against priming donor B
Format: cell-based
condition.set: primed 10 days with tyrphostin 20 μM, then removed; priming without tyrphostin = 100%
Provide the reading as a plain figure in %.

Some solved cases for reference:
{"columns": ["smi", "observed.property", "quantitative.readout"],
 "data": [
  ["CC(C)(C)n1nc(-c2ccc(Cl)cc2)c2c(N)ncnc21", "% Response to primary stimulator", 6.5],
  ["N#CC(=Cc1cc(O)c(O)c(CSCCc2ccccc2)c1)C(=O)NCCCCc1ccccc1", "% Response to primary stimulator", 32],
  ["N#CC(=Cc1cc(O)c(O)c(CSCCCc2ccccc2)c1)C(=O)NCc1ccccc1", "% Response to primary stimulator", 280]
]}

Now let's try a different one.
Query: What value of % Response to primary stimulator has been reported for the following molecule? Cc1ccc(-c2nn(C(C)(C)C)c3ncnc(N)c23)cc1
Response: 24

----------
Tested on: donor A anti-donor B-primed human PBMC stimulated with PHA
assay: Mitogenic response (PHA) of alloantigen-primed PBMC
Assay type: cell-based
condition.set: primed 10 days with tyrphostin 20 μM, then removed; priming without tyrphostin = 100%
observed.property: % Response to PHA

See these solved cases before continuing.
{"columns": ["smi", "% Response to PHA"],
 "data": [
  ["N#CC(=Cc1cc(O)c(O)c(CSCCc2ccccc2)c1)C(=O)NCCCCc1ccccc1", "62 ± 42^ %"],
  ["Cc1ccc(-c2nn(C(C)(C)C)c3ncnc(N)c23)cc1", "30 ± 28^ %"],
  ["N#CC(=Cc1cc(O)c(O)c(CSCCCc2ccccc2)c1)C(=O)NCc1ccccc1", "900%"]
]}

Let us examine a further case.
Query: Query % Response to PHA on donor A anti-donor B-primed human PBMC stimulated with PHA for CC(C)(C)n1nc(-c2ccc(Cl)cc2)c2c(N)ncnc21
Response: 40 ± 32^ %
